Measured Target: PCSK9 (Homo sapiens)
Construct: biotin (biotinylated); purchased
Experiment Notes: PCSK9 Alexa FRET Plus TR-FRET assay
Assay type: binding
Assay Conditions: biotinylated PCSK9 0.5 nM, 960 nM AF cyclic peptide Reagent B; Ki calculated from IC50 and KD of AF peptide
pKi: −log10 of the molar value.
Quantity: pKi

Smiles Structure | Measured Target | Quantity | Reported Measurement
COc1ccc(C[C@@H]2NC(=O)[C@H]([C@@H](C)O)NC(=O)[C@@H]3[C@@H]4CCN3C(=O)[C@@H]3Cc5cn(c6ccc(F)cc56)Cc5cn(nn5)Cc5cc(ccc5CNC(=O)CCCCCC(=O)N[C@H](CNC(=O)CCOCCOCC[N+](C)(C)CCNC(=O)COCCOCCNC(=O)COCCOCCNC(=O)CC[C@H](NC(=O)CCCCCCCCCCCCCCC(=O)O)C(=O)O)C(=O)N[C@@H](Cc5cccc(c5)C/C=C/CO4)C(=O)N3)CCNC(=O)[C@]3(C)CCCN3C2=O)cc1 | PCSK9 (Homo sapiens) | pKi | 10.44

* * *

Measured Target: PCSK9 (Homo sapiens, UniProt Q8NBP7)
Construct: biotin (biotinylated); purchased
Sequence (Q8NBP7 153-692): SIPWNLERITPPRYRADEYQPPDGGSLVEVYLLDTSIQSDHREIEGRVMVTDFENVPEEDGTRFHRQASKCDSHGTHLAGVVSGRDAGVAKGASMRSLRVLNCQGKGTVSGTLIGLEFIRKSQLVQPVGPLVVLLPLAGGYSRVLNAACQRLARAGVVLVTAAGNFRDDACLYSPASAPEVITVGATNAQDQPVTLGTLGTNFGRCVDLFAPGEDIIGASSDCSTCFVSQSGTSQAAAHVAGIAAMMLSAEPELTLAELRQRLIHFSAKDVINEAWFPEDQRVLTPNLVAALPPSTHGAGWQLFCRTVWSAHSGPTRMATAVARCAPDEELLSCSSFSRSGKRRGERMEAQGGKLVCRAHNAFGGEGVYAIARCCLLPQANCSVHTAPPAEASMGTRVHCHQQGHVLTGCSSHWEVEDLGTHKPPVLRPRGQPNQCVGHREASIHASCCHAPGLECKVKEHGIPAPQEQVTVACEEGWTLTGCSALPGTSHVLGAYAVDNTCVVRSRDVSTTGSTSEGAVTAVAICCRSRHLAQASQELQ
Experiment Notes: PCSK9 Alexa FRET Ultra TR-FRET assay
Assay type: binding
Assay Conditions: Ki Ultra; biotinylated PCSK9 0.5 nM, 960 nM AF cyclic peptide; Ki calculated from IC50 and KD of AF peptide; read-out: Alexa FRET Ultra TR-FRET

Compound | Display Unit | Ki
COc1ccc(C[C@@H]2NC(=O)[C@H]([C@@H](C)O)NC(=O)[C@@H]3[C@@H]4CCN3C(=O)[C@@H]3Cc5cn(c6ccc(F)cc56)Cc5cn(nn5)Cc5cc(ccc5CNC(=O)CCCCCC(=O)N[C@H](CNC(=O)COCCOCC[N+](C)(C)CCNC(=O)COCCOCCNC(=O)COCCOCCNC(=O)CCC(NC(=O)CCCCCCCCOCCCCCCCCC(=O)O)C(=O)O)C(=O)N[C@@H](Cc5cccc(c5)C/C=C/CO4)C(=O)N3)CCNC(=O)[C@]3(C)CCCN3C2=O)cc1 (some centres unmarked) [Example 2] | nM | 0.14
COc1ccc(C[C@@H]2NC(=O)[C@H]([C@@H](C)O)NC(=O)[C@@H]3[C@@H]4CCN3C(=O)[C@@H]3Cc5cn(c6ccc(F)cc56)Cc5cn(nn5)Cc5cc(ccc5CNC(=O)CCCCCC(=O)N[C@H](CNC(=O)COCCOCCNC(=O)CC[C@H](NC(=O)CCOCCOCC[N+](C)(C)CCNC(=O)COCCOCCNC(=O)COCCOCCNC(=O)CCC(NC(=O)CCCCCCCCCCCCCCCCC(=O)O)C(=O)O)C(=O)O)C(=O)N[C@@H](Cc5cccc(c5)C/C=C/CO4)C(=O)N3)CCNC(=O)[C@]3(C)CCCN3C2=O)cc1 (some centres unmarked) [Example 1] | nM | 0.488

* * *

The following molecules are shown together with reported pKi values.
Measured Target: PCSK9 (Homo sapiens)
Construct: biotin (biotinylated); purchased
Experiment Notes: PCSK9 Alexa FRET Ultra TR-FRET assay
Assay type: binding
Assay Conditions: Ki Ultra; biotinylated PCSK9 0.5 nM, 960 nM AF cyclic peptide; Ki calculated from IC50 and KD of AF peptide; read-out: Alexa FRET Ultra TR-FRET
pKi: −log10 of the molar value.
Quantity: pKi

Molecule | Reported Measurement
COc1ccc(C[C@@H]2NC(=O)[C@H]([C@@H](C)O)NCC(=O)[C@@H]3[C@@H]4CCN3C(=O)[C@@H]3Cc5cn(c6ccc(F)cc56)Cc5cn(nn5)Cc5cc(ccc5CNC(=O)CCCCCC(=O)N[C@H](CNC(=O)CCOCCOCC[N+](C)(C)CCOCCNC(=O)COCCOCCNC(=O)COCCOCCNC(=O)CC[C@H](NC(=O)CC[C@H](NC(=O)CCCCCCCCCCCCCCC(=O)O)C(=O)O)C(=O)O)C(=O)N[C@@H](Cc5cccc(c5)C/C=C/CO4)C(=O)N3)CCNC(=O)[C@]3(C)CCCN3C2=O)cc1 | 9.80
COc1ccc(C[C@@H]2NC(=O)[C@H]([C@@H](C)O)NC(=O)[C@@H]3[C@@H]4CCN3C(=O)[C@@H]3Cc5cn(c6ccc(F)cc56)CCCCCCN(Cc5ccc(cc5)CCNC(=O)[C@]5(C)CCCN5C2=O)C(=O)CCOCCC(=O)N[C@H](CNC(=O)CCOCCOCC[N+](C)(C)CCNC(=O)COCCOCCNC(=O)COCCOCCNC(=O)CCC(NC(=O)CCCCCCCCCCCCCCC(=O)O)C(=O)O)C(=O)N[C@@H](Cc2cccc(c2)CNC(=O)CO4)C(=O)N3)cc1 (some centres unmarked) | 12.00

* * *

Measured Target: PCSK9 (Homo sapiens)
Construct: biotin (biotinylated); purchased
Experiment Notes: PCSK9 Alexa FRET Ultra TR-FRET assay
Format: binding
Assay Conditions: Ki Ultra; biotinylated PCSK9 0.5 nM, 960 nM AF cyclic peptide; Ki calculated from IC50 and KD of AF peptide; read-out: Alexa FRET Ultra TR-FRET

Smiles Structure | Ki [nM]
COc1ccc(C[C@@H]2NC(=O)[C@H]([C@@H](C)O)NC(=O)[C@@H]3[C@@H]4CCN3C(=O)[C@@H]3Cc5cn(c6ccc(F)cc56)Cc5cn(nn5)Cc5cc(ccc5CNC(=O)CCCCCC(=O)N[C@H](CNC(=O)CCOCCOCC[N+](C)(C)CCNC(=O)COCCOCCNC(=O)COCCOCCNC(=O)CC[C@@H](NC(=O)CC[C@@H](NC(=O)CCCCCCCCCCCCCCCCC(=O)O)C(=O)O)C(=O)O)C(=O)N[C@@H](Cc5cccc(c5)C/C=C/CO4)C(=O)N3)CCNC(=O)[C@]3(C)CCCN3C2=O)cc1 | 0.43
COc1ccc(C[C@@H]2NC(=O)[C@H]([C@@H](C)O)NC(=O)[C@@H]3[C@@H]4CCN3C(=O)[C@@H]3Cc5cn(c6ccc(F)cc56)CCCCCCN(Cc5ccc(cc5)CCNC(=O)[C@]5(C)CCCN5C2=O)C(=O)CCOCCC(=O)N[C@H](CNC(=O)CCOCCOCC[N+](C)(C)CCNC(=O)COCCOCCNC(=O)COCCOCCNC(=O)CC[C@H](NC(=O)CC[C@H](NC(=O)CCCCCCCCCCCCCCC(=O)O)C(=O)O)C(=O)O)C(=O)N[C@@H](Cc2cccc(c2)CNC(=O)CO4)C(=O)N3)cc1 | 0.002
COc1ccc(C[C@@H]2NC(=O)[C@H]([C@@H](C)O)NC(=O)[C@@H]3[C@@H]4CCN3C(=O)[C@@H]3Cc5cn(c6ccc(F)cc56)Cc5cn(nn5)Cc5cc(ccc5CNC(=O)CCCCCC(=O)N[C@H](CNC(=O)CCOCCOCC[N+](C)(C)CCNC(=O)COCCOCCNC(=O)COCCOCCNC(=O)CC[C@H](NC(=O)CCCCCCCCCCCCCCC(=O)O)C(=O)O)C(=O)N[C@@H](Cc5cccc(c5)C/C=C/CO4)C(=O)N3)CCNC(=O)[C@]3(C)CCCN3C2=O)cc1 | 0.13
COc1ccc(C[C@@H]2NC(=O)[C@H]([C@@H](C)O)NC(=O)[C@@H]3[C@@H]4CCN3C(=O)[C@@H]3Cc5cn(c6ccc(F)cc56)Cc5cn(nn5)Cc5cc(ccc5CNC(=O)CCCCCC(=O)N[C@H](CNC(=O)CCOCCOCC[N+](C)(C)CCNC(=O)COCCOCCNC(=O)COCCOCCNC(=O)CC[C@H](NC(=O)CC[C@H](NC(=O)CCCCCCCCCCCCCCCCC(=O)O)C(=O)O)C(=O)O)C(=O)N[C@@H](Cc5cccc(c5)C/C=C/CO4)C(=O)N3)CCNC(=O)[C@]3(C)CCCN3C2=O)cc1 | 0.36

* * *

Measured Target: PCSK9 (Homo sapiens, UniProt Q8NBP7)
Construct: biotin (biotinylated); purchased
Experiment Notes: PCSK9 Alexa FRET Standard TR-FRET assay
Assay type: binding
Assay Conditions: biotinylated PCSK9 0.5 nM, 20 nM AF cyclic peptide Reagent A; Ki calculated from IC50 and KD of AF peptide; read-out: Alexa FRET Stdt TR-FRET
pKi: −log10 of the molar value.

Compound | pKi
COc1ccc(C[C@@H]2NC(=O)[C@H]([C@@H](C)Oc3cn(CCNC(=O)CCOCCOCC[N+](C)(C)CCNC(=O)COCCOCCNC(=O)COCCOCCNC(=O)CCC(NC(=O)CC[C@H](NC(=O)CCCCCCCCCCCCCCCCC(=O)O)C(=O)O)C(=O)O)nn3)NC(=O)[C@@H]3[C@@H]4CCN3C(=O)[C@@H]3Cc5cn(c6ccc(F)cc56)CCCCCCN(Cc5ccc(cc5)CCNC(=O)[C@]5(C)CCCN5C2=O)C(=O)CCC(=O)N[C@@H](C)C(=O)N[C@H](CNC(=O)CCOCCOCC[N+](C)(C)C)C(=O)N[C@@H](Cc2cccc(c2)C/C=C/CO4)C(=O)N3)cc1 (stereo partly shown) | > 8.90
COc1ccc(C[C@@H]2NC(=O)[C@H]([C@@H](C)O)NC(=O)[C@@H]3[C@@H]4CCN3C(=O)[C@@H]3Cc5cn(c6ccc(F)cc56)CCCCCCN(Cc5ccc(cc5)CCNC(=O)[C@]5(C)CCCN5C2=O)C(=O)CCOCCC(=O)N[C@H](CNC(=O)CCOCCOCC[N+](C)(C)CCNC(=O)COCCOCCNC(=O)COCCOCCNC(=O)CC[C@H](NC(=O)CC[C@H](NC(=O)CCCCCCCCCCCCCCC(=O)O)C(=O)O)C(=O)O)C(=O)N[C@@H](Cc2cccc(c2)CNC(=O)CO4)C(=O)N3)cc1 | > 8.90
COc1ccc(C[C@@H]2NC(=O)[C@H]([C@@H](C)O)NC(=O)[C@@H]3[C@@H]4CCN3C(=O)[C@@H]3Cc5cn(c6ccc(F)cc56)Cc5cn(nn5)Cc5cc(ccc5CNC(=O)CCCCCC(=O)N[C@H](CNC(=O)CCOCCOCC[N+](C)(C)CCNC(=O)COCCOCCNC(=O)COCCOCCNC(=O)CC[C@@H](NC(=O)CC[C@@H](NC(=O)CCCCCCCCCCCCCCCCC(=O)O)C(=O)O)C(=O)O)C(=O)N[C@@H](Cc5cccc(c5)C/C=C/CO4)C(=O)N3)CCNC(=O)[C@]3(C)CCCN3C2=O)cc1 | > 8.90
COc1ccc(C[C@@H]2NC(=O)[C@H]([C@@H](C)O)NCC(=O)[C@@H]3[C@@H]4CCN3C(=O)[C@@H]3Cc5cn(c6ccc(F)cc56)Cc5cn(nn5)Cc5cc(ccc5CNC(=O)CCCCCC(=O)N[C@H](CNC(=O)CCOCCOCC[N+](C)(C)CCOCCNC(=O)COCCOCCNC(=O)COCCOCCNC(=O)CC[C@H](NC(=O)CC[C@H](NC(=O)CCCCCCCCCCCCCCC(=O)O)C(=O)O)C(=O)O)C(=O)N[C@@H](Cc5cccc(c5)C/C=C/CO4)C(=O)N3)CCNC(=O)[C@]3(C)CCCN3C2=O)cc1 | > 8.90
